molecular target: Cyclic GMP-AMP synthase (Homo sapiens); test: Inhibition of recombinant His6-SUMO tagged human CGAS expressed in Escherichia coli BL21/pLys cells incubated for 20 mins by Kinase Glo chemiluminescence assay
Please respond with reported IC50 for every item in the list.

Query: Assign IC50 to the following record: `COc1cc(/C=c2\sc3n(c2=O)CCN=3)c(Br)cc1O`
Response: ≥ 10 µM

Query: Assign IC50 to the following record: `O=C1NC(=O)/C(=C/c2cnccn2)S1`
Response: ≥ 10 µM

Query: Assign IC50 to the following record: `Nc1ncc(COc2cc(/C=C3\Sc4ncccc4C3=O)c(Br)cc2O)c(C2CC2)n1`
Response: ≤ 0.5 µM

Query: Assign IC50 to the following record: `CN1C(=O)S/C(=C\c2cc(C(F)(F)F)c(O)cc2Br)C1=O`
Response: ≤ 0.5 µM

Query: Assign IC50 to the following record: `COc1cc(/C=C2\SC(=O)N(C)C2=O)c(Br)cc1NS(=O)(=O)C(F)(F)F`
Response: 0.5 to 10 µM

Query: Assign IC50 to the following record: `CN1C(=O)S/C(=C\c2cc(OCc3cncnc3)c(O)c(F)c2Br)C1=O`
Response: ≤ 0.5 µM

Query: Assign IC50 to the following record: `CN1C(=O)S/C(=C\c2cc(OCc3ccc4cccnc4c3)c(O)cc2Br)C1=O`
Response: ≥ 10 µM

Query: Assign IC50 to the following record: `Cc1nc(N)nc(C)c1COc1cc(/C=C2\SC(=O)N(C)C2=O)c(Br)cc1O`
Response: ≥ 10 µM

Query: Assign IC50 to the following record: `O=C1/C(=C/c2cc(C(F)(F)F)c(O)cc2Br)Sc2ncccc21`
Response: ≤ 0.5 µM

Query: Assign IC50 to the following record: `COc1cc(/C=C2\SC(=O)N(C)C2=O)c(Br)cc1Oc1cnc(NCc2ccncc2)s1`
Response: ≥ 10 µM

Query: Assign IC50 to the following record: `COc1nc(S(C)(=O)=O)ncc1COc1cc(/C=C2\SC(=O)N(C)C2=O)c(Br)cc1O`
Response: ≥ 10 µM

Query: Assign IC50 to the following record: `O=C1/C(=C/c2cc(OCc3cnc(NCc4ccncc4)nc3)c(O)cc2Br)Sc2ncccc21`
Response: ≤ 0.5 µM

Query: Assign IC50 to the following record: `CN1CCN(c2ncc(COc3cc(/C=C4\SC(=O)N(C)C4=O)c(Br)cc3O)cn2)CC1`
Response: ≥ 10 µM

Query: Assign IC50 to the following record: CC(Oc1cc(/C=C2\SC(=O)N(C)C2=O)c(Br)c(F)c1O)C(O)c1cnc(N)nc1 (stereo unspecified)
Response: ≤ 0.5 µM

Query: Assign IC50 to the following record: `CNc1ncc(COc2cc(/C=C3\Sc4ncccc4C3=O)c(Br)c(F)c2O)cn1`
Response: ≤ 0.5 µM

Query: Assign IC50 to the following record: `CN1C(=O)S/C(=C\c2cc(OCc3cnc(C4CC4)nc3)c(O)cc2Br)C1=O`
Response: ≥ 10 µM

====

target: Cyclic GMP-AMP synthase (Homo sapiens, UniProt Q8N884); assay: Inhibition of recombinant His6-SUMO tagged human CGAS expressed in Escherichia coli BL21/pLys cells incubated for 20 mins by Kinase Glo chemiluminescence assay
Sequence (Q8N884 whole entry): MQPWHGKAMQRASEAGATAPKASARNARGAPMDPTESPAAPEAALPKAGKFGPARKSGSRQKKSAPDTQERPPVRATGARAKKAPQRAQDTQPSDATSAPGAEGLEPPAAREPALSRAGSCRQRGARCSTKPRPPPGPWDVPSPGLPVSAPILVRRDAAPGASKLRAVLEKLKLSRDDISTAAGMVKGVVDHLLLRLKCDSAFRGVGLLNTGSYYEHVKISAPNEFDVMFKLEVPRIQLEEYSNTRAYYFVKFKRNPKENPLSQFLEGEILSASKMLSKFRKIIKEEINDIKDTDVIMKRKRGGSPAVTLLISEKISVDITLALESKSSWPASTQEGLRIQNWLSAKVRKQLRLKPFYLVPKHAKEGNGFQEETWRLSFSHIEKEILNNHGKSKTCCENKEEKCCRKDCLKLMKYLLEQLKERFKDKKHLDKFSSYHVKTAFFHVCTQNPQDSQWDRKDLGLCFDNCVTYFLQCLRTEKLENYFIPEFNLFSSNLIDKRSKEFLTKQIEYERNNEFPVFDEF
Please respond with reported IC50 for every item in the list.

Query: Assign IC50 to the following record: `CC(=O)c1cc(N)ccc1Oc1cc(/C=C2\SC(=O)N(C)C2=O)c(Br)c(F)c1O`
Response: ≥ 10 µM

Query: Assign IC50 to the following record: `CCc1cc(/C=C2\Sc3ncccc3C2=O)c(Br)cc1O`
Response: ≤ 0.5 µM

Query: Assign IC50 to the following record: `CN1C(=O)S/C(=C\c2cc(OCc3cnc(S)nc3)c(O)cc2Br)C1=O`
Response: ≥ 10 µM

Query: Assign IC50 to the following record: CC(Oc1cc(/C=C2\Sc3ncccc3C2=O)c(Br)cc1O)c1cnc(N)nc1 (stereo unspecified)
Response: ≤ 0.5 µM

Query: Assign IC50 to the following record: CSc1ncncc1C(=O)C(C)Oc1cc(/C=C2\SC(=O)N(C)C2=O)c(Br)c(F)c1O (stereo unspecified)
Response: ≥ 10 µM

Query: Assign IC50 to the following record: CNc1ncc(C(C)Oc2cc(/C=C3\SC(=O)N(C)C3=O)c(Br)c(F)c2O)cn1 (stereo unspecified)
Response: ≥ 10 µM

Query: Assign IC50 to the following record: `CN1C(=O)S/C(=C\c2cc(OCc3cnc(Nc4ccncc4)nc3)c(O)cc2Br)C1=O`
Response: ≤ 0.5 µM

Query: Assign IC50 to the following record: `O=C1NC(=O)/C(=C/c2ccnnc2)N1`
Response: ≥ 10 µM

Query: Assign IC50 to the following record: Cc1ncc(COc2cc(/C=C3\SC(=O)C(C)C3=O)c(Br)c(F)c2O)c(N)n1 (stereo unspecified)
Response: ≤ 0.5 µM

Query: Assign IC50 to the following record: `CN1C(=O)S/C(=C\c2cc(C(C)(F)F)c(O)cc2Br)C1=O`
Response: ≥ 10 µM

Query: Assign IC50 to the following record: `CC(=O)Nc1nc(S(=O)(=O)Nc2cc(Br)c(/C=C3\SC(=O)N(C)C3=O)cc2OCc2ccccc2)cs1`
Response: 0.5 to 10 µM

Query: Assign IC50 to the following record: `CN1C(=O)S/C(=C\c2cc(OCc3ccc(NC(=O)c4ccncc4)nc3)c(O)cc2Br)C1=O`
Response: ≤ 0.5 µM

Query: Assign IC50 to the following record: `COc1nc(SC)ncc1COc1cc(/C=C2\SC(=O)N(C)C2=O)c(Br)cc1O`
Response: ≥ 10 µM

Query: Assign IC50 to the following record: CC(Oc1cc(CC2Sc3ncccc3C2=O)c(Br)c(F)c1O)c1cnc(Cl)nc1 (stereo unspecified)
Response: ≥ 10 µM

Query: Assign IC50 to the following record: `CN1C(=O)S/C(=C\c2cc(OCc3cnc(NC(=O)c4ccncc4)nc3)c(O)c(F)c2Br)C1=O`
Response: ≤ 0.5 µM

Query: Assign IC50 to the following record: `COc1cc(/C=C2\SC(=O)N(C)C2=O)c(C#N)cc1O`
Response: ≥ 10 µM

Measured values drawn from ChEMBL document CHEMBL4418308 for this set.
